test system: CAKI-1 renal; test: NCI-60 one-dose screen, 48 h; conditions: 10 µM unless noted
Compounds without any hit were thinned out: in the full panel of roughly 83,000, 20% have a hit. Activity calls are given as the source filed them. Rule for the calls: active = growth percent below 10; inactive = the rest.
Outcomes: T = active, F = inactive

[
  {
    "COMPOUND": "COc1ccc(-c2nn3c(-c4cc(F)c(Cl)cc4Cl)nnc3s2)cc1",
    "QUALITATIVE LABEL": "F"
  },
  {
    "COMPOUND": "Cn1cc(-c2csc(-c3c[nH]c4ccc(F)cc34)n2)c2cnccc21",
    "QUALITATIVE LABEL": "T"
  },
  {
    "COMPOUND": "C=C(C)[C@@H]1CC[C@]2(C(=O)N3CCN(C)CC3)CC[C@]3(C)[C@H](CC[C@@H]4[C@@]5(C)CC(CCCNC(C)=O)(CCCNC(C)=O)[C@H](OC(C)=O)C(C)(C)[C@@H]5CC[C@]43C)[C@@H]12",
    "QUALITATIVE LABEL": "F"
  },
  {
    "COMPOUND": "Cn1cc(-c2nonc2-c2cn(C)c3ccc(Br)cc23)c2ccccc21",
    "QUALITATIVE LABEL": "F"
  },
  {
    "COMPOUND": "COc1ccc(/C(C)=C(\\c2ccc(OCCN3CCCCCC3)cc2)c2ccc(OC(=O)C3CCCCC3)cc2)cc1",
    "QUALITATIVE LABEL": "T"
  },
  {
    "COMPOUND": "O=C(N=Nc1c(O)[nH]c2ccccc12)Nc1ccc(Br)cc1",
    "QUALITATIVE LABEL": "F"
  },
  {
    "COMPOUND": "OCCN1CCN(c2cc(-c3cccc(OC(F)(F)F)c3)nc3ccc(N4CCCC4)cc23)CC1",
    "QUALITATIVE LABEL": "F"
  },
  {
    "COMPOUND": "Cc1ccc(C(=O)c2ccc(CC(=O)N=Nc3c(O)[nH]c4ccc(OC(F)(F)F)cc34)n2C)cc1",
    "QUALITATIVE LABEL": "F"
  },
  {
    "COMPOUND": "C=C1CCC2C3(C)COC(c4ccc(NC(C)=O)cc4)OC3CCC2(C)C1C/C=C1/C(=O)OCC1O (stereo not given)",
    "QUALITATIVE LABEL": "F"
  },
  {
    "COMPOUND": "COc1ccc(-c2cc(-c3cc(OC)c(OC)c(OC)c3)c(C#N)c(=O)n2CCCCC(=O)O)cc1",
    "QUALITATIVE LABEL": "F"
  },
  {
    "COMPOUND": "C#CCn1cnc2cnc(Nc3cccc(NC(=O)CCl)c3)nc21",
    "QUALITATIVE LABEL": "T"
  },
  {
    "COMPOUND": "O=C(NNc1ccccc1)C1CCCN1 (stereo not given)",
    "QUALITATIVE LABEL": "F"
  },
  {
    "COMPOUND": "Cc1ccc(-c2nc3nc(-c4ccc(F)cc4)nc(N4CCCNCC4)c3o2)cc1",
    "QUALITATIVE LABEL": "T"
  },
  {
    "COMPOUND": "CC(C)(C)CC(N)=O",
    "QUALITATIVE LABEL": "F"
  },
  {
    "COMPOUND": "O=C(Nc1ccc(F)cc1)c1cc2cc(Nc3nc(-c4ccccc4)nc4ccccc34)ccc2oc1=O",
    "QUALITATIVE LABEL": "F"
  },
  {
    "COMPOUND": "COc1cc(N=Nc2ccc(O)c3ncccc23)c2ncccc2c1",
    "QUALITATIVE LABEL": "F"
  },
  {
    "COMPOUND": "O=C(Cc1ccc(F)cc1)c1ccccc1",
    "QUALITATIVE LABEL": "F"
  },
  {
    "COMPOUND": "O=[N+]([O-])c1ccc2[nH]c3nccc(NCc4cccc(Cl)c4)c3c2c1",
    "QUALITATIVE LABEL": "F"
  },
  {
    "COMPOUND": "COc1ccc(-c2c[nH]c(C(=O)O)c2-c2cc(OC)c(OC)c(OC)c2)cc1",
    "QUALITATIVE LABEL": "F"
  },
  {
    "COMPOUND": "C/C(=C(\\c1ccc(OCCN2CCOCC2)cc1)c1ccc(OC(=O)C2CCCCC2)cc1)c1ccc(Cl)cc1",
    "QUALITATIVE LABEL": "F"
  }
]
